pIC50 reference
Molecular target: EGFR[T790M/C797S/L858R] (Homo sapiens, UniProt P00533, C797S/L858R/T790M)
Construct: purchased Carna Bio
Sequence (P00533 25-1210 T790M/C797S/L858R): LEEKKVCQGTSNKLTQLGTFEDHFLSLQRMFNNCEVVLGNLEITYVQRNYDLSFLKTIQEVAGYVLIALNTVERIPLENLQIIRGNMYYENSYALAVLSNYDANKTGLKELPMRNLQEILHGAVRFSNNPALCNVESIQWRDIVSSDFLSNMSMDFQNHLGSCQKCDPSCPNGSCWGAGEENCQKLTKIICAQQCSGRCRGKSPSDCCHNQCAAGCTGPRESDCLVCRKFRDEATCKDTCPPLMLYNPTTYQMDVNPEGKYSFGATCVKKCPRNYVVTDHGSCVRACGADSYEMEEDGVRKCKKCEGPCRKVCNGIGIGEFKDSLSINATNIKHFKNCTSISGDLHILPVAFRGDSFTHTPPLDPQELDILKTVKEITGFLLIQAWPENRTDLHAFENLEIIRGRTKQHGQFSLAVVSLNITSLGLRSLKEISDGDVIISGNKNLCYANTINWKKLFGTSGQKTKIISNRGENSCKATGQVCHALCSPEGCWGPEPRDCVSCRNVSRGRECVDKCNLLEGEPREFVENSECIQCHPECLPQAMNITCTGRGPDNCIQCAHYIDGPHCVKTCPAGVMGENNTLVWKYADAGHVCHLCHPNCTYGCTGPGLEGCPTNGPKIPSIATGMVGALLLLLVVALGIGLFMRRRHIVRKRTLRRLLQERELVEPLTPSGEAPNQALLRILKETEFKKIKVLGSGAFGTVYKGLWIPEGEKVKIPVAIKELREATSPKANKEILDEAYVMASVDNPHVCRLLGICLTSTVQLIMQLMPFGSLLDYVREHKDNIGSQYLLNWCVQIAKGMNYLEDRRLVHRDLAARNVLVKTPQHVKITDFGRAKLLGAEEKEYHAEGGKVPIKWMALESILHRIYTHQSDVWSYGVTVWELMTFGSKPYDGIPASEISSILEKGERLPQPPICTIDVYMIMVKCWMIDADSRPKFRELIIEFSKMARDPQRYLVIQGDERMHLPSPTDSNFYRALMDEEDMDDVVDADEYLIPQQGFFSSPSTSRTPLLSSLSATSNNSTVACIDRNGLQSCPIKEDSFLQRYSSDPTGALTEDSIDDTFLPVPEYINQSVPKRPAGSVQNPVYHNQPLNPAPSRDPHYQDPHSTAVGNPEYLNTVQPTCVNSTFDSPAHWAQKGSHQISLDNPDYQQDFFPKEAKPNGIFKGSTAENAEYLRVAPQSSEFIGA
Experiment: Inhibition of EGFR[T790M/C797S/L858R] biochemical enzymatic activity (HTRF)
Conditions: EGFR[T790M/C797S/L858R], 1 mM ATP, 1 h at room temperature, read-out: IC50 @T790M- C797S - L858R
On this scale, pIC50 is minus log10 of a concentration expressed in M (mol/L).

{"COMPOUND": "Cc1cc2cc(n1)-c1cnn(C)c1OCCN1CC3CCC(C3)(C1)n1c(nc3ccc(N4CCC(N5CCOCC5)C4)cc31)NC2=O (single isomer, unassigned) [Example B44B]", "SUBJECT_OF_TEST": "EGFR[T790M/C797S/L858R] (Homo sapiens, UniProt P00533, C797S/L858R/T790M)", "pIC50": 8.31}

## Input Lookup: pIC50 / EGFR[T790M/C797S/L858R] (Homo sapiens, UniProt P00533, C797S/L858R/T790M) / Cc1cc2cc(n1)-c1cnn(C)c1OCCN1CC3CCC(CC3)(C1)n1c(nc3ccc(N(C)CCCN(C)C)cc31)NC2=O
## Output 8.21

## Input Could you do the same for Cc1cc2cc(n1)-c1cnn(C)c1OCCN1CC3CCC(C3)(C1)n1c(nc3ccc(N4CCC5(CCN(C)C5)CC4)cc31)NC2=O (single isomer, unassigned) [Example B52B] , please?
## Output 8.80

## Input Could you do the same for Cc1cc2cc(n1)-c1cnn(C)c1OCCC[C@@H](C)Cn1c(nc3ccc4c(c31)CCN(C1COC1)C4)NC2=O , please?
## Output 8.38

## Input Could you do the same for Cc1cc2cc(n1)-c1cnn(C)c1OCCN1CC3CCC(CC3)(C1)n1c(nc3ccc(N4CC[C@H](N(C)C)C4)cc31)NC2=O , please?
## Output 8.23

## Input Could you do the same for Cc1cc2cc(n1)-c1cnn(C)c1OCCN1CC3CCC(CC3)(C1)n1c(nc3ccc(N4CCN(C(C)C)CC4)cc31)NC2=O , please?
## Output 8.38

====

Biological target: EGFR wild type (Homo sapiens)
Construct: purchased Carna Bio
Sequence (P00533 25-1210): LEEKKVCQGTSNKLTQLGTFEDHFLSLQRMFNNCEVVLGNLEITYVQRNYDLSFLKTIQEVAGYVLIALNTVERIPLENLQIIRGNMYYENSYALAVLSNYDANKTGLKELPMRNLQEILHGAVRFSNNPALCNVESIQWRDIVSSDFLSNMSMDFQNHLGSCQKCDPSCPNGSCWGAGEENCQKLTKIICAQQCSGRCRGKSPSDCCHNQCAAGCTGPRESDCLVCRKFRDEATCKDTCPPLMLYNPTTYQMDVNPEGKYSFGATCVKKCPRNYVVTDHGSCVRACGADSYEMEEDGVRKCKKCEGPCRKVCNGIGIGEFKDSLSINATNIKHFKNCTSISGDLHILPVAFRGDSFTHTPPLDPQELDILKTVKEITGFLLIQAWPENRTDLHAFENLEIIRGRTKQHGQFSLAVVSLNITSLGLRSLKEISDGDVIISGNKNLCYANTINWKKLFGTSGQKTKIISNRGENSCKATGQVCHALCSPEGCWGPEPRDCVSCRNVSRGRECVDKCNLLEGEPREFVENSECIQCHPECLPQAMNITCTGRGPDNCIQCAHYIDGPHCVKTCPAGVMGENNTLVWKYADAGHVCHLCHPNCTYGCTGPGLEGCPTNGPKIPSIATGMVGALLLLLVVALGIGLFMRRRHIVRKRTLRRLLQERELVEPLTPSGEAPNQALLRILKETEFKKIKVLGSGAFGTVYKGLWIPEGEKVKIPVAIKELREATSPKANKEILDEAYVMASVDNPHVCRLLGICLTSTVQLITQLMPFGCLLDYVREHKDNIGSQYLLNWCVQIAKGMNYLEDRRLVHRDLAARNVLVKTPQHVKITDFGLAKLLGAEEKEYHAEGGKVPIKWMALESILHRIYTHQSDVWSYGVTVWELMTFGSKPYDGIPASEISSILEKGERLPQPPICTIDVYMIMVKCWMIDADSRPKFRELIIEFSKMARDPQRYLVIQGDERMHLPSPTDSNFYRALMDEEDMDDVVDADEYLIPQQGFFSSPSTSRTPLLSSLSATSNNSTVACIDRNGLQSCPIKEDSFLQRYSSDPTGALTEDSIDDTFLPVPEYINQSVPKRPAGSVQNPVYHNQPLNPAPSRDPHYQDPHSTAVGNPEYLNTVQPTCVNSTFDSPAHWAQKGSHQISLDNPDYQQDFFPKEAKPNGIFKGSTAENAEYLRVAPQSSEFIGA
Test: Inhibition of EGFR wild type biochemical enzymatic activity (HTRF)
Conditions: EGFR WT, 1 mM ATP, 1 h, room temperature, read-out: IC50 (nM) @WT
VALUE_KIND: IC50 (nM)
Use nM as the unit, but write only the number.

{"COMPOUND": "CN1CCC2(CCN(c3ccc4nc5n(c4c3)C34CCC(CN(CCOc6c(cnn6C)-c6cc(cn(C)c6=O)C(=O)N5)C3)C4)C2)C1 (single isomer, unassigned) [Example A81B]", "IC50 [nM]": 6.6}

Next:
## Input Lookup: IC50 / EGFR wild type (Homo sapiens) / CCC1CCCOc2c(cnn2C)-c2cc(cn(C)c2=O)C(=O)Nc2nc3ccc(N4CCN(C)CC4)cc3n2C1 (single isomer, unassigned) [Example A16B]
## Output 288

====

log10 IC50 reference
Target: EGFR L858R/T790M (Homo sapiens, UniProt P00533, L858R/T790M)
Construct: purchased Carna Bio
Sequence (P00533 25-1210 T790M/L858R): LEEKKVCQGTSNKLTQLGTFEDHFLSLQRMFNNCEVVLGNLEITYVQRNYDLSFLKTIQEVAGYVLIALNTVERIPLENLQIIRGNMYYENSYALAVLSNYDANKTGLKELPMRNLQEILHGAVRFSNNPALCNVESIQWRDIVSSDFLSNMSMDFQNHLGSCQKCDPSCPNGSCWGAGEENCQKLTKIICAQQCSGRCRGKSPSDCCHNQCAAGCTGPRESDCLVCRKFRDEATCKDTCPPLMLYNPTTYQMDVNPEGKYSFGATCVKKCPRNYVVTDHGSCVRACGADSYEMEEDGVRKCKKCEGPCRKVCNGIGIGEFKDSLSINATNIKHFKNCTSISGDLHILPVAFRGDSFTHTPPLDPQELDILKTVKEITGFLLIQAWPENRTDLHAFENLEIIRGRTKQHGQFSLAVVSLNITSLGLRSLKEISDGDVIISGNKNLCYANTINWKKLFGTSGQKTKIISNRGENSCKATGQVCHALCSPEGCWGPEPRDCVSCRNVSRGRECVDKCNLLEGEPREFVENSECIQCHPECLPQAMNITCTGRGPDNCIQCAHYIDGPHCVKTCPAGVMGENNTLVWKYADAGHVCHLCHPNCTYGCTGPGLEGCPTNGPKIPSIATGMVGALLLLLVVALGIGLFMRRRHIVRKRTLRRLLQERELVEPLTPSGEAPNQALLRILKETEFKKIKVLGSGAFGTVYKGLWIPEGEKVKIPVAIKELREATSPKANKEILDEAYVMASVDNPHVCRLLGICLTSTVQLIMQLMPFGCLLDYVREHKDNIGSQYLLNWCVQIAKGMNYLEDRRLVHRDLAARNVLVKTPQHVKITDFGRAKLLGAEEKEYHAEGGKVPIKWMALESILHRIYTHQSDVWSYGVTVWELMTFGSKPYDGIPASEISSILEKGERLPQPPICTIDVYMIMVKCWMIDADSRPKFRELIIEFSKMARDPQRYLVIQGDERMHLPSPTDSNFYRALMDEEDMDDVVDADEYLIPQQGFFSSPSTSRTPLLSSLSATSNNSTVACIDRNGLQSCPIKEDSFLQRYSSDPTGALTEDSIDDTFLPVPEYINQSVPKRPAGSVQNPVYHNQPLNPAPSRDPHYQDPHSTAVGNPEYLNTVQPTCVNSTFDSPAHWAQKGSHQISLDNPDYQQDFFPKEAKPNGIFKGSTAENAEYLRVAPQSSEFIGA
Assay: Inhibition of EGFR L858R/T790M biochemical enzymatic activity (HTRF)
Settings: EGFR L858R-T790M, 1 mM ATP, 1 h, room temperature, read-out: IC50 (nM) @L858R-T790M
Heads up: the numbers are on a log10 scale; they represent IC50 in nM.

{"COMPOUND": "CN1CC2CN(c3ccc4nc5n(c4c3)C34CCC(CN(CCOc6c(cnn6C)-c6cc(cn(C)c6=O)C(=O)N5)C3)C4)CC2C1 (single isomer, unassigned) [Example A68B]", "RECORDED_MEASUREMENT": 0.26}
{"COMPOUND": "C[C@@H]1CCCOc2c(cnn2C)-c2cc(cn(C)c2=O)C(=O)Nc2nc3ccc(N4CC5(CCCN5C)C4)cc3n2C1 [Example A44]", "RECORDED_MEASUREMENT": 1.18}
{"COMPOUND": "C[C@@H]1CCCOc2c(cnn2C)-c2cc(cn(C)c2=O)C(=O)Nc2nc3ccc(N4CCN(C5CC5)CC4)cc3n2C1 [Example A48]", "RECORDED_MEASUREMENT": 0.70}
{"COMPOUND": "C[C@@H]1CCCOc2c(cnn2C)-c2cc(cn(C)c2=O)C(=O)Nc2nc3ccc(N4CCNCC4)cc3n2C1 [Example A55]", "RECORDED_MEASUREMENT": 0.92}
{"COMPOUND": "C[C@@H]1CCCOc2c(cnn2C)-c2cc(cn(C)c2=O)C(=O)Nc2nc3ccc(N4CCN(C)CC4)c(Cl)c3n2C1 [Example A101]", "RECORDED_MEASUREMENT": 0.87}
{"COMPOUND": "C[C@@H]1CCCOc2c(cnn2C)-c2cc(cn(C)c2=O)C(=O)Nc2nc3ccc(N4CC(F)(CN(C)C)C4)cc3n2C1 [Example A58]", "RECORDED_MEASUREMENT": 1.53}
{"COMPOUND": "Cn1ncc2c1OCCN1CC3CCC(C3)(C1)n1c(nc3ccc(N4CCC(N5CCOCC5)C4)cc31)NC(=O)c1cc-2c(=O)n(C)c1 (single isomer, unassigned) [Example A104B]", "RECORDED_MEASUREMENT": 1.11}
{"COMPOUND": "C[C@@H]1CCCOc2c(cnn2C)-c2cc(cn(C)c2=O)C(=O)Nc2nc3ccc4c(c3n2C1)CCN(C)C4 [Example A103]", "RECORDED_MEASUREMENT": 1.81}
{"COMPOUND": "Cn1ncc2c1OCCN1CC3CCC(C3)(C1)n1c(nc3cc(F)ccc31)NC(=O)c1cc-2c(=O)n(C)c1 (stereo not shown) [Example A117B]", "RECORDED_MEASUREMENT": 3.28}
{"COMPOUND": "Cn1ncc2c1OCCN1CC(CCC1(C)C)n1c(nc3ccc(N4CCOCC4)cc31)NC(=O)c1cc-2c(=O)n(C)c1 (stereo not shown) [Example A12]", "RECORDED_MEASUREMENT": 2.68}

Next:
## Input Find the recorded log10 IC50 belonging to CN1CCC2(CC1)CCN(c1ccc3nc4n(c3c1)C13CCC(CN(CCOc5c(cnn5C)-c5cc(cn(C)c5=O)C(=O)N4)C1)C3)C2 (single isomer, unassigned) [Example A88B] and report it.
## Output 0.69

Where do these numbers come from? They come from patent US20260365670A1.
